molecular target: human renin (Homo sapiens, UniProt P00797)
Sequence (P00797 67-406): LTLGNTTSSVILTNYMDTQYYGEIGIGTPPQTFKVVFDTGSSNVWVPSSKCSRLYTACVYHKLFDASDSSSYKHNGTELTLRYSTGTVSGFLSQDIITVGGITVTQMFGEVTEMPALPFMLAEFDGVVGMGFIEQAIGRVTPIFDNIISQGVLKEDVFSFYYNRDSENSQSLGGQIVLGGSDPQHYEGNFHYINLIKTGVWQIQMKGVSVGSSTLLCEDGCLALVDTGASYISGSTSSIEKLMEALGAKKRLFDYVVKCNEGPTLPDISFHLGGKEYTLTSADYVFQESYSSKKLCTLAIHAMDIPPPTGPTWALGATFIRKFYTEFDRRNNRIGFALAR
assay.readout: IC50
Put your answer as a value accompanied by its unit after it.

Entry CC(C)C[C@H](NC(=O)[C@H](Cc1c[nH]cn1)NC(=O)C(CC(=O)N1CCOCC1)Cc1cccc2ccccc12)[C@@H](O)CC(=O)OC(C)C (stereo partly shown) : reported IC50 = ?
66 nM
